- assay.target: UniProt P11473
- Sequence (P11473 whole entry): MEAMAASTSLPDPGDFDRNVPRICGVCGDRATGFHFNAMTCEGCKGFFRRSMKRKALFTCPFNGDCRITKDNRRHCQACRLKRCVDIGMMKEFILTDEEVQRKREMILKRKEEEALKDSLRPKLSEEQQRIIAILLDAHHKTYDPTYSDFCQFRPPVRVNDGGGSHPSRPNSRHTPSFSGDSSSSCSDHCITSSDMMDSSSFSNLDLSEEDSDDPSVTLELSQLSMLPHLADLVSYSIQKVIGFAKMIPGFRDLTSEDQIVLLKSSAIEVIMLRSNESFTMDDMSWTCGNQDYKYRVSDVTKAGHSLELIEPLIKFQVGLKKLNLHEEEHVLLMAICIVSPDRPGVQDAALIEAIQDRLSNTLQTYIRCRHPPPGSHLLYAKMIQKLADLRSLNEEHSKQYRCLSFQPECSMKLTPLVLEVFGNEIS
- experiment: Binding affinity to full length human VDR expressed in mouse C3H10T1/2 cells assessed as upregulation of CYP24A1 mRNA expression at 5 uM after 24 hrs by RT-PCR analysis relative to control
- Format: ADME, cell-based
- cond: c3h 10t1/2, 24 h
Could you please mark T for values of Activity below 3 and F for values at or above it?

molecule: C=C1CC[C@H](O)C/C1=C\C=C1/CCC[C@]2(C)[C@@H]([C@H](C)CCCC(C)C)CC[C@@H]12
class.assignment: F
--
molecule: CC(C)CCC[C@@H](C)[C@H]1CC[C@H]2C(CCC3C[C@@H](O)CCC3C)CCC[C@]12C (some centres undefined)
class.assignment: T
--
molecule: CC(C)CCC[C@@H](C)[C@H]1CC[C@H]2[C@@H](O)CCC[C@]12C
class.assignment: F
--
molecule: C=C1CC[C@H](O)C/C1=C/CO
class.assignment: T
--
molecule: C=C1CC[C@H](O)C/C1=C/C=C1\CCC[C@]2(C)[C@@H]([C@H](C)CO)CC[C@@H]12
class.assignment: F
--
molecule: C=C1CC[C@H](O)C/C1=C\C=C1/CCC[C@]2(C)[C@@H]([C@H](C)CO)CC[C@@H]12
class.assignment: F
--
molecule: C=C1CC[C@H](O)C/C1=C/C=C1\CCC[C@]2(C)[C@@H]([C@H](C)CCCC(C)C)CC[C@@H]12
class.assignment: F
--
molecule: CC(C)[C@@H](C)/C=C/[C@@H](C)[C@H]1CC[C@H]2[C@@H](O)CCC[C@]12C
class.assignment: T
--
molecule: CC(C)CCC[C@@H](C)[C@H]1CCC2=CCCC[C@@]21C
class.assignment: T
--
molecule: C=C1CC[C@H](O)C/C1=C/C=C1\CCC[C@]2(C)[C@@H]([C@H](C)/C=C/[C@H](C)C(C)C)CC[C@@H]12
class.assignment: F
--
molecule: C[C@H](CO)[C@H]1CC[C@H]2[C@@H](O)CCC[C@]12C
class.assignment: F
--
molecule: C=C1CC[C@H](O)C/C1=C/C(O)C1(O)CCC[C@]2(C)[C@@H]([C@H](C)CCCC(C)C)CC[C@@H]12 (some centres undefined)
class.assignment: F

Where do these numbers come from? They come from ChEMBL document CHEMBL2062438.
